Tested on: liver CYP450 enzymes (all tested enzymes)
Assay: Liver CYP450 enzyme inhibition
Type: in vitro ADME
METRIC: IC50

Q: Entry under review: Cc1ccc(NC(=O)c2ccc3c(c2)CC[C@@H]3N2CCN(C)CC2)cc1C#Cc1cnc2ccc(Cl)nn12 . Reported IC50?
A: > 10 µM

====

Molecular target: EGFR (Homo sapiens)
Sequence (P00533 25-1210): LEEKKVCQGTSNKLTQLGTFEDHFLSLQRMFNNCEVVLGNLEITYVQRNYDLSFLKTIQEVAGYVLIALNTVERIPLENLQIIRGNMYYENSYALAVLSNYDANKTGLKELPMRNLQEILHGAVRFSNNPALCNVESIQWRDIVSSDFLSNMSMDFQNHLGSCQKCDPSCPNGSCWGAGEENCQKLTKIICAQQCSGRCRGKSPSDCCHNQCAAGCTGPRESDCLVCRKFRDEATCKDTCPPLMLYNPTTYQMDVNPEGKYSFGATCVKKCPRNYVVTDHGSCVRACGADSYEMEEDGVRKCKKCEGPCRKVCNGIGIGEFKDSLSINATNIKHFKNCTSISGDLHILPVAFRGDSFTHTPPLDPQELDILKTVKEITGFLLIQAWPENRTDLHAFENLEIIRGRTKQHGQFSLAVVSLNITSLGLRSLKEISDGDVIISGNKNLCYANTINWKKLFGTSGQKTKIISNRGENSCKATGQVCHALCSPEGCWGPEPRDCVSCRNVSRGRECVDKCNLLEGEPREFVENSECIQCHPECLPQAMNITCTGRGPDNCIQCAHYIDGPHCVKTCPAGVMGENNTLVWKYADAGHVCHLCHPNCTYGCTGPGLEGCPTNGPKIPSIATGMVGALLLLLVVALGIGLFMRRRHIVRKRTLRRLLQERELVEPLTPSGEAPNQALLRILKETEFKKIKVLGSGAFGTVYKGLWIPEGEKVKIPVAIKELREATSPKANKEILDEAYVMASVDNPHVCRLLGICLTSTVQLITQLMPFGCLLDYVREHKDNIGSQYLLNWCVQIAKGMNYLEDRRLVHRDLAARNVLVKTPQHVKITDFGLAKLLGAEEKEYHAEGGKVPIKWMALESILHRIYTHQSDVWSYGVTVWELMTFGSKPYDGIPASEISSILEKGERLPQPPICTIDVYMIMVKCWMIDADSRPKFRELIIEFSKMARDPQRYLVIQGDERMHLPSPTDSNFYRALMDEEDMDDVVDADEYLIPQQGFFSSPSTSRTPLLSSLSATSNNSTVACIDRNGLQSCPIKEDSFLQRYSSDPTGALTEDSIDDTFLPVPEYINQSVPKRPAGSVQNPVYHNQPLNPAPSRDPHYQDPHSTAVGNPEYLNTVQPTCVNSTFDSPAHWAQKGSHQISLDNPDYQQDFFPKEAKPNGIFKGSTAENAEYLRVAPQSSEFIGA
METRIC: IC50 (µM)
Report the figure in µM without appending any unit label.

Q: Can you look up the measured IC50 of Cc1ccc(NC(=O)c2ccc3c(c2)CC[C@@H]3N2CCN(C)CC2)cc1C#Cc1cnc2ccc(Cl)nn12 [CT-721] for me?
A: 0.13

====

System: Human PBMC
Assay: Cell proliferation assay
Type: cell-based
Settings: read-out: Cell growth inhibition IC50, human lymphocyte, 72 hours
METRIC: IC50

Q: Which measured IC50 value corresponds to Cc1ccc(NC(=O)c2ccc3c(c2)CC[C@@H]3N2CCN(C)CC2)cc1C#Cc1cnc2ccc(Cl)nn12 [CT-721] ?
A: 1 to 10 µM
